Tested on: MKNK2
Conditions: concentration: 1 μM, replicates: in singlicate; n = 1;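 further: KINOMEscan kinase panel screen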
%Inh strictly less than 4% = Y. Otherwise N.

- Compound Structure String: "CNc1nccc(-c2c(-c3ccc(F)cc3)ncn2CCCN2CCOCC2)n1"
  Label Value: "Y"
- Compound Structure String: "CC(C)(C)c1ccc(-n2cnc3c(N)ncnc32)cc1"
  Label Value: "N"
- Compound Structure String: "N#Cc1ccc(Oc2ccc(Nc3ncnc4cc[nH]c34)cc2Cl)cc1"
  Label Value: "N"
- Compound Structure String: "Cn1cc(-c2ccc3c(c2)CCN3C(=O)Cc2cccc(C(F)(F)F)c2)c2c(N)ncnc21"
  Label Value: "Y"
- Compound Structure String: "Clc1cccc(-c2nc(Nc3ccncc3)c3ccccc3n2)c1"
  Label Value: "Y"
- Compound Structure String: "Cl.c1ccc(Cn2ncc3cc(Nc4ncnc5ccccc45)ccc32)cc1"
  Label Value: "N"
- Compound Structure String: "CCn1c(-c2ccncc2)nc2cnccc21"
  Label Value: "N"
- Compound Structure String: "Oc1ccc2ncnc(Nc3ccc(OCc4ccccc4)cc3)c2c1"
  Label Value: "N"

----------
System: PAK1
Conditions: concentration: 1 μM, replicates: in singlicate; n = 1
Mark each entry 1 if its %Inh sits below 2%, and -1 for all others.

- Compound: "CC(C)N1CCC(n2cnc(-c3ccc(F)cc3)c2-c2ccnc(N)n2)CC1 [SB-223132]"
  Label Value: -1
- Compound: "Nc1nc(-c2cccnc2)c(-c2ccnc3ccccc23)s1 [GW684083]"
  Label Value: 1
- Compound: "N#Cc1ccc(Oc2ccc(Nc3ncnc4cc[nH]c34)cc2Cl)cc1"
  Label Value: -1
- Compound: "Nc1n[nH]c2nnc(-c3ccccc3)cc12 [SB-517389]"
  Label Value: -1
- Compound: "O=C(CCO)NCCn1ccc2ncnc(Nc3ccc(Oc4cccc(C(F)(F)F)c4)c(Cl)c3)c21"
  Label Value: 1
- Compound: "CCC(CC)(CC)n1cnc2c(N)ncnc21 [SKF-97620]"
  Label Value: -1

----------
Tested on: VEGFR2
Construct: gene KDR
Conditions: concentration: 1 μM, replicates: in singlicate; n = 1
Recorded %Inh for the following compounds

- Compound Structure String: "CN1c2ccc(-c3ccc(C(=O)NCCO)cc3)cc2-c2[nH]ncc2S1(=O)=O"
  %Inh (%): 44
- Compound Structure String: "CC(=O)Nc1n[nH]c2ncc(-c3ccccc3)cc12"
  %Inh (%): 18
- Compound Structure String: "CS(=O)(=O)CCNCc1nc(-c2ccc3ncnc(Nc4ccc(OCc5cccc(F)c5)c(Cl)c4)c3c2)cs1.Cl"
  %Inh (%): 1
- Compound Structure String: "FC(F)(F)c1ccc(-c2cc(-c3c[nH]nc3-c3ccccn3)ccn2)cc1"
  %Inh (%): 4
- Compound Structure String: "Cl.O=S(=O)(c1cccc(F)c1)c1ccc(Nc2ncnc3cc(Br)sc23)cc1Cl"
  %Inh (%): 3

----------
System: RIPK5
Conditions: concentration: 1 μM, replicates: in singlicate; n = 1

- Molecule: "Nc1nc(-c2ccccn2)c(-c2ccnc3ccccc23)s1 [GW548057]"
  Target: "RIPK5"
  %Inh [%]: 14
- Molecule: "Cl.Cn1ccc(-c2cccc(Nc3ccnc4cc(-c5nccs5)ccc34)c2)n1 [GW525701]"
  Target: "RIPK5"
  %Inh [%]: 0
- Molecule: "CCc1nc(-c2cccc(N(C)S(=O)(=O)c3ccccc3)c2)c(-c2ccnc(Nc3ccc(N4CCN(C(C)=O)CC4)nc3)n2)s1 [GSK1645895]"
  Target: "RIPK5"
  %Inh [%]: 10
- Molecule: "CCCc1ccc(S(=O)(=O)NC2CCN(c3ccnc(Nc4ccc(OC)cc4)n3)C2)cc1 (stereo not drawn) [GSK1379737]"
  Target: "RIPK5"
  %Inh [%]: 0
- Molecule: "O=C(Nc1ccccc1)Nc1ccc(Oc2ccc3nccn3n2)cc1"
  Target: "RIPK5"
  %Inh [%]: 0
- Molecule: "CCc1nc(-c2cccc(C)c2)c(-c2ccnc(NC(=O)c3ccccc3)c2)s1"
  Target: "RIPK5"
  %Inh [%]: 0
- Molecule: "Clc1ccc(-c2cc(-c3c[nH]nc3-c3ccccn3)ccn2)cc1 [GW681251]"
  Target: "RIPK5"
  %Inh [%]: 0
- Molecule: "C[C@@H]1CCN(C(=O)CO)C[C@@H]1N(C)c1ncnc2[nH]ccc12"
  Target: "RIPK5"
  %Inh [%]: 12
- Molecule: "Nc1n[nH]c2nnc(-c3ccccc3)cc12 [SB-517389]"
  Target: "RIPK5"
  %Inh [%]: 0
- Molecule: "CC(C)N1CCC(n2cnc(-c3ccc(F)cc3)c2-c2ccnc(N)n2)CC1 [SB-223132]"
  Target: "RIPK5"
  %Inh [%]: 0
- Molecule: "FC(F)(F)c1ccc(-c2nn3ncccc3c2-c2ccnc(Nc3cccc(C(F)(F)F)c3)n2)cc1 [GW828205]"
  Target: "RIPK5"
  %Inh [%]: 0
- Molecule: "CN1CCC(n2cnc(-c3ccc(F)cc3)c2-c2ccnc(NC3CCNCC3)n2)CC1 [SB-229482]"
  Target: "RIPK5"
  %Inh [%]: 7
- Molecule: "OCCOCCn1ccc2ncnc(Nc3ccc(Oc4cccc(Cl)c4)c(Cl)c3)c21"
  Target: "RIPK5"
  %Inh [%]: 0
- Molecule: "COC(=O)c1c(-c2ccccc2)c2cc(Cl)ccc2c(=O)n1Cc1ccc(S(C)(=O)=O)cc1"
  Target: "RIPK5"
  %Inh [%]: 4
- Molecule: "COc1ccc(NC(=O)c2ccc(-c3cc(-c4nnc(C)o4)ccc3C)cc2)cc1 [GW595885]"
  Target: "RIPK5"
  %Inh [%]: 0
- Molecule: "Cl.Fc1ccccc1COc1ccc(Nc2ncnc3ccc(-c4nnc(C(F)(F)F)o4)cc23)cc1Cl [GW424170]"
  Target: "RIPK5"
  %Inh [%]: 0
- Molecule: "CS(=O)(=O)CCNCc1nc(-c2ccc3ncnc(Nc4ccc(OCc5cccc(F)c5)c(Cl)c4)c3c2)cs1.Cl [GW583340]"
  Target: "RIPK5"
  %Inh [%]: 1
- Molecule: "COc1ccc(-c2oc3ncnc(N)c3c2-c2ccc(OC)cc2)cc1 [SB-589132]"
  Target: "RIPK5"
  %Inh [%]: 0

----------
System: ACVR1
Conditions: concentration: 1 μM, replicates: in singlicate; n = 1
Listed next: entries and their corresponding %Inh.

- Compound: "Cl.Fc1ccccc1COc1ccc(Nc2ncnc3ccc(-c4nnc(C(F)(F)F)o4)cc23)cc1Cl"
  %Inh / %: 0
- Compound: "C[C@H]1CC[C@@H](C(=O)Nc2ccccc2)CN1c1cc(-c2ccc3c(N)n[nH]c3c2)nc(N)n1"
  %Inh / %: 0
- Compound: "COc1ccc(-c2oc3ncnc(N)c3c2-c2ccc(OC)cc2)cc1"
  %Inh / %: 21
- Compound: "Oc1ccc2ncnc(Nc3ccc(OCc4ccccc4)cc3)c2c1"
  %Inh / %: 0
- Compound: "COc1ccc(NC(=O)Nc2ccc(C)c(-c3ccc(C(=O)Nc4ccncc4)cc3)c2)cc1"
  %Inh / %: 43
- Compound: "CNc1nccc(-c2c(-c3ccc(F)cc3)ncn2CCCN2CCOCC2)n1"
  %Inh / %: 8
- Compound: "COc1cc2ncnc(Nc3ccc(OCc4ccccc4Br)c(Cl)c3)c2cc1OC.Cl"
  %Inh / %: 0
- Compound: "O=C(CCO)NCCn1ccc2ncnc(Nc3ccc(Oc4cccc(C(F)(F)F)c4)c(Cl)c3)c21"
  %Inh / %: 0
- Compound: "O=C(NCCCN1CCCC1=O)c1cnc(NCc2cc(Cl)ccc2Cl)nc1NC1CCNCC1"
  %Inh / %: 0
- Compound: "Cl.Cl.c1ccc(-c2cc3ccncc3cc2OC2CCNCC2)cc1"
  %Inh / %: 22
- Compound: "NC(=O)c1sc(-n2cnc3ccccc32)cc1OCc1ccccc1F"
  %Inh / %: 0
- Compound: "CCCc1ccc(S(=O)(=O)NC2CCN(c3ccnc(Nc4ccc(OC)cc4)n3)C2)cc1 (centres unmarked)"
  %Inh / %: 0
- Compound: "Fc1ccc(Nc2nccc(-c3c(-c4ccc(Cl)cc4)nn4ncccc34)n2)cc1F"
  %Inh / %: 0
- Compound: "CS(=O)(=O)CCNCc1nc(-c2ccc3ncnc(Nc4ccc(OCc5cccc(F)c5)c(Cl)c4)c3c2)cs1.Cl"
  %Inh / %: 0
- Compound: "C[C@@H]1CCN(C(=O)CO)C[C@@H]1N(C)c1ncnc2[nH]ccc12"
  %Inh / %: 0
- Compound: "COc1cc2c(Nc3cccc(NC(=O)c4ccccc4)c3)ncnc2cc1OCCCN1CCOCC1"
  %Inh / %: 5
- Compound: "CSc1ccc(NC2=C(c3ccccc3Cl)C(=O)NC2=O)cc1"
  %Inh / %: 0
- Compound: "OCCOCCn1ccc2ncnc(Nc3ccc(Oc4cccc(Cl)c4)c(Cl)c3)c21"
  %Inh / %: 0
- Compound: "O=C(c1ccc(-c2cc(-c3c[nH]nc3-c3ccccn3)ccn2)cc1)N1CCCC1"
  %Inh / %: 0
- Compound: "Cc1ccc(C)c(NC(=O)NCCNc2ccnc(Nc3ccc(F)cc3)n2)c1"
  %Inh / %: 0
- Compound: "FC(F)(F)c1ccc(-c2cc(-c3c[nH]nc3-c3ccccn3)ccn2)cc1"
  %Inh / %: 16
- Compound: "Cc1ccc(NC(=O)c2cccc(C#N)c2)cc1-c1ccc(C(=O)Nc2ccncc2)cc1"
  %Inh / %: 18
- Compound: "CCC(CC)(CC)n1cnc2c(N)ncnc21"
  %Inh / %: 0
- Compound: "FC(F)(F)c1ccc(-c2nn3ncccc3c2-c2ccnc(Nc3cccc(C(F)(F)F)c3)n2)cc1"
  %Inh / %: 0
- Compound: "CC(=O)Nc1n[nH]c2ncc(-c3ccccc3)cc12"
  %Inh / %: 13
- Compound: "Cc1ccc(O)cc1Nc1cc(C(F)(F)F)nc2ccc(-c3ccncc3)cc12"
  %Inh / %: 11
